Molecular target: T1, wild type 2Ig-B7H3-mFc (human, UniProt Q5ZPR3-2 29-248, limits assumed)
T1 construct: Q5ZPR3 canonical entry is the 4Ig isoform; the 2Ig form is its shorter isoform; also called 2Ig-B7H3-Fc; WT 2Ig-B7H3-Fc; not shown: mouse Fc
T1 sequence (looked up): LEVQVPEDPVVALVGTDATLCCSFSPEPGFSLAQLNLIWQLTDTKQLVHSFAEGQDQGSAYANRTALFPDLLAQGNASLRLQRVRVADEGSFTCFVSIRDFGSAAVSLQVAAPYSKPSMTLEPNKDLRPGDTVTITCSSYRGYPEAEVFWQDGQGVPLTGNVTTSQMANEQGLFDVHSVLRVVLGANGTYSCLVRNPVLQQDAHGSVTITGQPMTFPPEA
Assay: SPR, IgG on 2Ig-B7H3-mFc
measure: pKd
For clarity, pKd is expressed as the negative log10 of concentration in mol/L.

See these solved cases before continuing.
Q: What measured pKd goes with mouse/human chimeric 8H9 (ch8H9) IgG1 (antibody, V domains shown) VH: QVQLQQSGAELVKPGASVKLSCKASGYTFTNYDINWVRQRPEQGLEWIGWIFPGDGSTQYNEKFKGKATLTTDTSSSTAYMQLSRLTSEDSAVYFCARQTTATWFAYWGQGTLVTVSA VL: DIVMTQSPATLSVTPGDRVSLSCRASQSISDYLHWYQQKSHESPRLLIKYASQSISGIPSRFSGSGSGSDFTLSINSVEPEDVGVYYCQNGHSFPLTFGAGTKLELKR ?
A: 9.12

Q: What measured pKd goes with hu8H9 5.1 IgG1 (antibody, V domains shown, also called clone 5.1) VH: QVQLVQSGAEVVKPGASVKVSCKTSGYTFTNYDINWVRQRPGQGLEWIGWIFPGDDSTQYNEKFKGRVTMTTDTSTSTVYMELSSLRSEDTAVYFCARQTTGTWFAYWGQGTLVTVSS VL: EIVMTQSPATLSVSPGERVTLSCRASQSISDYLYWYQQKSHQAPRLLIKYASQSISGIPARFSGSGSGSEFTLTISSLQPEDFGVYYCQNGHSFPLTFGQGTKLELKR ?
A: 9.09

Could you now look at the following binder, please?
Q: What measured pKd goes with hu8H9-H1L2 IgG1 (antibody, V domains shown) VH: QVQLVQSGAEVKKPGASVKLSCKASGYTFTNYDINWVRQAPGQGLEWIGWIFPGDGSTQYNEKFKGKATLTTDTSTSTAYMELSSLRSEDTAVYFCARQTTATWFAYWGQGTLVTVSS VL: EIVMTQSPATLSVSPGERVTLSCRASQSISDYLHWYQQKSHESPRLLIKYASQSISGIPARFSGSGSGTEFTLTINSVEPEDVGVYYCQNGHSFPLTFGQGTKLEIKR ?
A: 7.16
